system: KRAS patient-derived spheroids with HUVEC/MSC, viability; experiment: Anticancer human tumor 941728-121-R-J1-PDC patient-derived lung adenocarcinoma cell line growth inhibition [KRAS2]; conditions: second compound 1 µM; first compound 3.16 µM; active compounds read low
parameter: viability, T/C

# per-item lookup of viability, T/C; items listed below
1. CC1OCC2(CCN(c3cnc(Sc4ccnc(N)c4Cl)c(N)n3)CC2)C1N (stereo unspecified) + C=CC(=O)N1CCN(c2nc(OCC3CCCN3C)nc3c2CCN(c2cccc4cccc(C)c24)C3)CC1CC#N
2. O=C(c1cc(Cc2n[nH]c(=O)c3ccccc23)ccc1F)N1CCN(C(=O)C2CC2)CC1 + CC1OCC2(CCN(c3cnc(Sc4ccnc(N)c4Cl)c(N)n3)CC2)C1N
3. CC(C)NCC(C(=O)N1CCN(c2ncnc3c2C(C)CC3O)CC1)c1ccc(Cl)cc1 (stereo unspecified) + CC1OCC2(CCN(c3cnc(Sc4ccnc(N)c4Cl)c(N)n3)CC2)C1N
4. CC1OCC2(CCN(c3cnc(Sc4ccnc(N)c4Cl)c(N)n3)CC2)C1N (stereo unspecified) + CNCc1ccccc1-c1csc(C(C)Nc2nc(C)nc3cc(OC)c(OC)cc23)c1
5. CC1(C)CCC(CN2CCN(c3ccc(C(=O)NS(=O)(=O)c4ccc(NCC5CCOCC5)c([N+](=O)[O-])c4)c(Oc4cnc5[nH]ccc5c4)c3)CC2)=C(c2ccc(Cl)cc2)C1 + C=CC(=O)N1CCN(c2nc(=O)n(-c3c(C)ccnc3C(C)C)c3nc(-c4c(O)cccc4F)c(F)cc23)C(C)C1
6. COc1cc(Nc2ncc3c(n2)-c2ccc(Cl)cc2C(c2c(F)cccc2OC)=NC3)ccc1C(=O)O + COc1cc2nc(C)nc(NC(C)c3cc(N)cc(C(F)(F)F)c3)c2cc1OC1CCOC1
7. CC1OCC2(CCN(c3cnc(Sc4ccnc(N)c4Cl)c(N)n3)CC2)C1N (stereo unspecified) + COc1cc2nc(C)nc(NC(C)c3cc(N)cc(C(F)(F)F)c3)c2cc1OC1CCOC1
8. CC1COCCN1c1cc(-c2ccnn2C)c2ccnc(-c3ccn[nH]3)c2n1 (stereo unspecified) + C=CC(=O)N1CCN(c2nc(=O)n(-c3c(C)ccnc3C(C)C)c3nc(-c4c(O)cccc4F)c(F)cc23)C(C)C1

Solution:
29.1%
49%
12.8%
20.9%
13.2%
33.9%
32.3%
14%

# per-item lookup of viability, T/C; items listed below
1. COc1cc(Nc2ncc3c(n2)-c2ccc(Cl)cc2C(c2c(F)cccc2OC)=NC3)ccc1C(=O)O + CC1OCC2(CCN(c3cnc(Sc4ccnc(N)c4Cl)c(N)n3)CC2)C1N
2. COC(=O)c1ccc2c(C(=Nc3ccc(N(C)C(=O)CN4CCN(C)CC4)cc3)c3ccccc3)c(O)[nH]c2c1 + C=CC(=O)N1CCN(c2nc(=O)n(-c3c(C)ccnc3C(C)C)c3nc(-c4c(O)cccc4F)c(F)cc23)C(C)C1
3. CC1OCC2(CCN(c3cnc(Sc4ccnc(N)c4Cl)c(N)n3)CC2)C1N (stereo unspecified) + C=CC(=O)N1CCN(c2nc(=O)n(-c3c(C)ccnc3C(C)C)c3nc(-c4c(O)cccc4F)c(F)cc23)C(C)C1
4. O=C(c1cc(Cc2n[nH]c(=O)c3ccccc23)ccc1F)N1CCN(C(=O)C2CC2)CC1 + C=CC(=O)N1CCN(c2nc(OCC3CCCN3C)nc3c2CCN(c2cccc4cccc(C)c24)C3)CC1CC#N
5. O=C(c1cc(Cc2n[nH]c(=O)c3ccccc23)ccc1F)N1CCN(C(=O)C2CC2)CC1 + COc1cc2nc(C)nc(NC(C)c3cc(N)cc(C(F)(F)F)c3)c2cc1OC1CCOC1
6. COc1cc2nccc(Oc3ccc(NC(=O)C4(C(=O)Nc5ccc(F)cc5)CC4)cc3)c2cc1OC + CC1OCC2(CCN(c3cnc(Sc4ccnc(N)c4Cl)c(N)n3)CC2)C1N

Solution:
1. 28%
2. 7.55%
3. 19.6%
4. 32%
5. 103%
6. 8.65%

----------
system: KRAS patient-derived spheroids with HUVEC/MSC, viability; assay: Anticancer human tumor 941728-121-R-J1-PDC cell line growth inhibition [KRAS2]; details: second compound 0.1 µM; first compound 1 µM; active compounds read low;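 further: spheroids exposed to agents for seven days before readout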
parameter: viability, T/C (%)
Give bare numbers, in %.

Solved entries (count: 3):
molecule	tested-system	unit-abbreviation	viability, T/C
CC(=O)OC12COC1CC(O)C1(C)C(=O)C(O)C3=C(C)C(OC(=O)C(O)C(NC(=O)OC(C)(C)C)c4ccccc4)CC(O)(C(OC(=O)c4ccccc4)C21)C3(C)C (centres undefined) + COc1cc2nc(C)nc(NC(C)c3cc(N)cc(C(F)(F)F)c3)c2cc1OC1CCOC1	KRAS patient-derived spheroids with HUVEC/MSC, viability	%	41.9
COC(=O)c1ccc2c(C(=Nc3ccc(N(C)C(=O)CN4CCN(C)CC4)cc3)c3ccccc3)c(O)[nH]c2c1 + C=CC(=O)N1CCN(c2nc(=O)n(-c3c(C)ccnc3C(C)C)c3nc(-c4c(O)cccc4F)c(F)cc23)C(C)C1	KRAS patient-derived spheroids with HUVEC/MSC, viability	%	12.7
CC1COCCN1c1cc(-c2ccnn2C)c2ccnc(-c3ccn[nH]3)c2n1 (centres undefined) + C=CC(=O)N1CCN(c2nc(=O)n(-c3c(C)ccnc3C(C)C)c3nc(-c4c(O)cccc4F)c(F)cc23)C(C)C1	KRAS patient-derived spheroids with HUVEC/MSC, viability	%	13.1

Turning to the following molecule.
Exercise: For the molecule shown here, CC(=O)OC12COC1CC(O)C1(C)C(=O)C(O)C3=C(C)C(OC(=O)C(O)C(NC(=O)OC(C)(C)C)c4ccccc4)CC(O)(C(OC(=O)c4ccccc4)C21)C3(C)C (centres undefined) + CC1OCC2(CCN(c3cnc(Sc4ccnc(N)c4Cl)c(N)n3)CC2)C1N , give the reported viability, T/C.
Solution: 39.5

----------
system: KRAS patient-derived spheroids with HUVEC/MSC, viability; assay: Anticancer human tumor 941728-121-R-J1-PDC cell line growth inhibition [KRAS2]; conditions: second compound 0.316 µM; first compound 0.1 µM; active compounds read low;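 further: spheroids exposed to agents for seven days before readout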
Answer each item with its documented viability, T/C.
Answers are plain numbers, in %.

compound	tested-system	parameter	unit-abbreviation	observed-value
COc1cc(Nc2ncc3c(n2)-c2ccc(Cl)cc2C(c2c(F)cccc2OC)=NC3)ccc1C(=O)O + COc1cc2nc(C)nc(NC(C)c3cc(N)cc(C(F)(F)F)c3)c2cc1OC1CCOC1	KRAS patient-derived spheroids with HUVEC/MSC, viability	viability, T/C	%	42.3
COC(=O)c1ccc2c(C(=Nc3ccc(N(C)C(=O)CN4CCN(C)CC4)cc3)c3ccccc3)c(O)[nH]c2c1 + COc1cc2nc(C)nc(NC(C)c3cc(N)cc(C(F)(F)F)c3)c2cc1OC1CCOC1	KRAS patient-derived spheroids with HUVEC/MSC, viability	viability, T/C	%	43.4

Turning to the following compound.
Exercise: Short answer please: viability, T/C, KRAS patient-derived spheroids with HUVEC/MSC, viability, entry CC(C)NCC(C(=O)N1CCN(c2ncnc3c2C(C)CC3O)CC1)c1ccc(Cl)cc1 (stereo not drawn) + CC1OCC2(CCN(c3cnc(Sc4ccnc(N)c4Cl)c(N)n3)CC2)C1N
Solution: 31.9

----------
Answer each item with its documented viability, T/C.
Test system: KRAS patient-derived spheroids with HUVEC/MSC, viability
Assay: Anticancer human tumor 941728-121-R-J1-PDC cell line growth inhibition [KRAS2];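 further: spheroids exposed to agents for seven days before readout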
Details: compound 0.316 µM; active compounds read low
Source text: Multicellular complex tumor spheroid response to RAS pathway inhibitors in combination with a targeted agents in patient-derived cell lines with oncogenic KRAS variants from multiple cancer types A high-throughput screen of multi-cell type tumor spheroids was designed to identify active combinations of targeted small molecules and KRAS pathway inhibitors. […] Compounds. […] If the clinical Cmax for an agent had not been determined, the highest concentration tested was 10 microM. […]

Solved entries (count: 10):
compound	parameter	observed-value
O=C(c1cc(Cc2n[nH]c(=O)c3ccccc23)ccc1F)N1CCN(C(=O)C2CC2)CC1	viability, T/C	92.6% [middle of 5 runs]
CC(=O)OC12COC1CC(O)C1(C)C(=O)C(O)C3=C(C)C(OC(=O)C(O)C(NC(=O)OC(C)(C)C)c4ccccc4)CC(O)(C(OC(=O)c4ccccc4)C21)C3(C)C (stereo unspecified)	viability, T/C	46.5% [middle of 5 runs]
COc1cc2nccc(Oc3ccc(NC(=O)C4(C(=O)Nc5ccc(F)cc5)CC4)cc3)c2cc1OC	viability, T/C	83.8% [middle of 5 runs]
COc1cc(OC)cc(N(CCNC(C)C)c2ccc3ncc(-c4cnn(C)c4)nc3c2)c1	viability, T/C	92% [middle of 5 runs]
C=CC(=O)N1CCN(c2nc(=O)n(-c3c(C)ccnc3C(C)C)c3nc(-c4c(O)cccc4F)c(F)cc23)C(C)C1 (stereo unspecified)	viability, T/C	22.9% [middle of 17 runs]
CCNC(=O)CC1N=C(c2ccc(Cl)cc2)c2cc(OC)ccc2-n2c(C)nnc21 (stereo unspecified)	viability, T/C	61.8% [middle of 5 runs]
Cn1nccc1Nc1nccc(-c2cc3c(s2)C(C)(C)N(CCN2CCOCC2)C3=O)n1	viability, T/C	57.3% [middle of 5 runs]
CC1OCC2(CCN(c3cnc(Sc4ccnc(N)c4Cl)c(N)n3)CC2)C1N (stereo unspecified)	viability, T/C	38% [middle of 19 runs]
CCN1CCN(Cc2ccc(Nc3ncc(F)c(-c4cc(F)c5nc(C)n(C(C)C)c5c4)n3)nc2)CC1	viability, T/C	60.4% [middle of 5 runs]
CC1COCCN1c1cc(-c2ccnn2C)c2ccnc(-c3ccn[nH]3)c2n1 (stereo unspecified)	viability, T/C	42% [middle of 5 runs]

Exercise: For the compound shown here, CC(C)NCC(C(=O)N1CCN(c2ncnc3c2C(C)CC3O)CC1)c1ccc(Cl)cc1 (stereo unspecified) , give the reported viability, T/C.
Solution: 56.5% [middle of 5 runs]
